system: BDF1 mice, P388 leukemia ip, median survival T/C; experiment: NCI In Vivo Anticancer Drug Screen. Data for tumor model P388 Leukemia (intraperitoneal) in B6D2F1 (BDF1) mice; settings: endpoint: median survival time; dose: 25.0 mg/kg/injection; schedule: Q01DX009 (ip); vehicle: saline
Inconclusive results and toxic doses are left out. How the source made its calls: active means survival T/C of 150% or more; inactive means T/C below 125% in these data.
Labels: 1 for active, 0 for inactive

INSERT INTO assay_data (compound, group_label) VALUES
  ('CN(C)CCC12CC(=O)CCC1C=Cc1ccc(O)c(O)c12 (configuration not stated)', 0),
  ('OCC1OC(n2ccc3c2ncn2nnnc32)C(O)C1O (configuration not stated)', 0),
  ('COc1cc(C(=O)OC2c3ccccc3CCC2N(C)C)cc(OC)c1OC (configuration not stated)', 0),
  ('CC1CN1P(=O)(N1CC1C)N1CC1C (configuration not stated)', 0),
  ('NS(=O)(=O)c1ccc(Cl)cc1', 0),
  ('CC1(C)N=C(N)N=C(N)N1c1ccc(OCCNC(=O)Nc2ccc(S(=O)(=O)F)cc2)c(Cl)c1', 1),
  ('NCCc1cnc2ccccc2n1', 0);
